Provide the recorded koff for the entries that follow.
Target: T1, human interleukin-2 receptor α-chain (IL-2Rα; CD25), recombinant protein (human, UniProt P01589 22-240, limits assumed)
T1 construct: also called huIL2R-a; hIL-2RA
T1 sequence: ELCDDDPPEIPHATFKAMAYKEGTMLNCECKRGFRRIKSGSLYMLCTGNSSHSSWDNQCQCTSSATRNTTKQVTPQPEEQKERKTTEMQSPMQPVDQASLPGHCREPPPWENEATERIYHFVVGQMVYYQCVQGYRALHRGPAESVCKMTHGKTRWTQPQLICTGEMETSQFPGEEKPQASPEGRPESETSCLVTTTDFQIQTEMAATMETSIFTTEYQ
Test: P.E. off-rate SPR
Give bare numbers, in s⁻¹.

| binder | koff, s⁻¹ |
| --- | --- |
| 8-MP01C12 VHH (periplasmic extract) (VHH, soluble VHH in periplasmic extract) VHH: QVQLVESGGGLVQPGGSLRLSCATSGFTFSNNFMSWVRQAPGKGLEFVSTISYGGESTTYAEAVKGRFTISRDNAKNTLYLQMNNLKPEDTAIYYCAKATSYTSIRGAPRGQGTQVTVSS | 0.000383 |
| 5-MP01F05 VHH (periplasmic extract) (VHH, soluble VHH in periplasmic extract) VHH: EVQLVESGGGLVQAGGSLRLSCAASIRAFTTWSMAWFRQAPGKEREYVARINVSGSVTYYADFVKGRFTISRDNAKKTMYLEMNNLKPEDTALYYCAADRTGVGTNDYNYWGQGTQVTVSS | 0.00042 |
| 10-MP05F03 VHH (periplasmic extract) (VHH, soluble VHH in periplasmic extract) VHH: QVQLVESGGGLVQAGGSLRLSCAASGIPFDNYAMGWFRQAPGKEREFVAARDLEGIITRYGDSVKGRFTISRGNAKNTVFLQMNSLKPEDTAVYYCAARDGGVVAGSRSSAQYNYWGQGTQVTVSS | 0.000639 |
| 4-MP01F04 VHH (periplasmic extract) (VHH, soluble VHH in periplasmic extract) VHH: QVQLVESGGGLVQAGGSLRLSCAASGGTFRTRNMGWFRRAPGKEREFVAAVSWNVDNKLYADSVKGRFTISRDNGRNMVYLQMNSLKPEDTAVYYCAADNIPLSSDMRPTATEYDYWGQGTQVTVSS | 0.000258 |
| 11-MP05H04 VHH (periplasmic extract) (VHH, soluble VHH in periplasmic extract) VHH: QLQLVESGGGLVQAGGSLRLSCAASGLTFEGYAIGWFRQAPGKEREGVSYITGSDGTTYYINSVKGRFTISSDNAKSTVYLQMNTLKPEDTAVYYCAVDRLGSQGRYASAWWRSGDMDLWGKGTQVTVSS | 0.0012 |

Hello, I would appreciate it if you could give koff for each entry below.
1. 12-MP05B12 VHH (periplasmic extract) (VHH, soluble VHH in periplasmic extract) VHH: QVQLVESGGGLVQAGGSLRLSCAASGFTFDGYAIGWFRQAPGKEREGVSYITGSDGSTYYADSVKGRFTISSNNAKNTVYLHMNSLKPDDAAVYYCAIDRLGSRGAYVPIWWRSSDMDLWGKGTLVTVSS
2. 6-MP01G05 VHH (periplasmic extract) (VHH, soluble VHH in periplasmic extract) VHH: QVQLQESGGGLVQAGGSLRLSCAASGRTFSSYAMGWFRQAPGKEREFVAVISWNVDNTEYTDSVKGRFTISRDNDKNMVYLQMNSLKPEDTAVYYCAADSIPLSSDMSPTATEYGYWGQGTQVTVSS
3. 1-MP01H01 VHH (periplasmic extract) (VHH, soluble VHH in periplasmic extract) VHH: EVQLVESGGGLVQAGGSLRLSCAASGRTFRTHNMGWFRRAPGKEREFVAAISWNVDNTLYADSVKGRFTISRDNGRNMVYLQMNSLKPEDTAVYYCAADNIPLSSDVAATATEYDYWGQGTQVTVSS

Reply text:
0.000222
0.0206
0.0229
